# System: MS2 coat protein
# experiment: apparent KD of MS2 coat protein; higher = weaker reporter binding
# experimental-setup: Eterna round: R107; input ligand: none

# polymer-sequence, apparent KD of MS2 coat protein (µM)
records = [
    ("AAGACGGUCGGAAGGAGCGGUACAUGAGGAUCACCCAUGUACUCCUGGGCAUCCGUAGUGUGCCAGGUAGGUCGCCGAUUGCGGG [XArg-B14]", 0.0128),
    ("UUGACAUGAGGAUCACCCAUGUUAGCUGAAGGAGCGAGGUAGUACUCAGGUAGGUCGCAGAGAGCAGAGUUAGUUGUUCUCAUGU [X-ArgiA-ms2@4]", 0.0191),
    ("AAUAGACAUGAGGAUCACCCAUGUAUGGAAGGAGCGGUGAAUAAGCCAGGUAGGUCGCCAGUGUGAGGGUUAUCUAUGUAAUAAA [#19 Exclusion - Arginine A]", 0.0384),
    ("AGAAUGUAAUAUGGCAAAGUUAUAACCGAAGGAGCGCCGAAUAAGGCAGGUAGGUCGCGGAAACAUGAGGAUCACCCAUGUCCAU [Arginine A Same State; Euphoria Solution 3]", 0.0173),
    ("GGAUAGGACACGGCCGCCACUAGCUAGGAUACUAGCAACAUUUCCUCGCAUGAGGAUCACCCAUGUAGGACCGGGUGUCCUAUCG", 0.462),
    ("AGGACGGCCGGAAGGAGCGGUACAUGAGGAUCACCCAUGUACCUCUGGGCAUCCGUAGUGUGCCAGGUAGGUCGCCGGUUGCGGG [Veatgema]", 0.00988),
    ("UUGGGUUUGUGAAGGAGCGGGUAUGUUUUCUAGUGGAUCCUAACAUGAGGAUCACCCAUGUCCCAGGUAGGUCGCGCGGGUUUGG [12.U]", 0.117),
]
